# tested-target: HIV-1 protease (Human immunodeficiency virus type 1 group M subtype B)
# assay-protocol: biochemical
# experimental-setup: dose 3.300 uM
readout: HIV-1 Protease % Inhib (%)
One number for each entry, in %.

Consider the reported HIV-1 Protease % Inhib for these compounds:
O=c1oc2c(c(O)c1C(c1ccccc1)C1CC1)CCCCCC2CC1CCCO1 (single isomer, unassigned)
103.16
Cn1cnc(S(=O)(=O)Nc2cccc([C@@H](c3c(O)c4c(oc3=O)CCCCCC4)C3CC3)c2)c1
111.05
CC(C)(C)OC(=O)N[C@@H](Cc1c[nH]cn1)C(=O)Nc1cccc(C(c2c(O)c3c(oc2=O)CCCCCC3)C2CC2)c1 (single isomer, unassigned) [Example 241]
101.51
N#Cc1ccc(S(=O)(=O)Nc2cccc(C(c3c(O)c4c(oc3=O)CCCCCC4)C3CC3)c2)cc1 (centres unmarked) [Example 262]
121.87

Read the next record carefully.
Ask | Look up and report measured HIV-1 Protease % Inhib for this entry: CC(C)(C)OC(=O)NCC(=O)Nc1cccc(C(c2c(O)c3c(oc2=O)CCCCCC3)C2CC2)c1 (single isomer, unassigned)
Reply | 102.72

----------
# tested-target: HIV-1 protease (Human immunodeficiency virus type 1 group M subtype B, UniProt P04585)
# assay-protocol: biochemical
# experimental-setup: read-out: HIV-1 FITC KI
readout: pKi
Answers are plain numbers, as −log10 of the molar value.

Hey, can you go through the list below and give me pKi for every item?
1. COC(=O)c1cccc(S(=O)(=O)Nc2cccc(C(c3c(O)c4c(oc3=O)CCCCCC4)C3CC3)c2)c1 (stereo not shown)
2. CC(O)CC1CCCCCc2c1oc(=O)c(C(c1ccccc1)C1CC1)c2O (stereo not shown)
3. O=c1oc2c(c(O)c1[C@H](c1cccc(NS(=O)(=O)c3ccccc3)c1)C1CC1)CCCCCC2
4. COCCOCCOCCOc1ccc(S(=O)(=O)Nc2cccc(C(c3c(O)c4c(oc3=O)CCCCCC4)C3CC3)c2)cc1 (stereo not shown)

Reply |
8.84
7.40
8.12
8.64

----------
# tested-target: HIV-1 protease (Human immunodeficiency virus type 1 group M subtype B)
# assay-protocol: biochemical
# experimental-setup: read-out: HIV-1 Protease % Inhib, dose 100.000 uM
readout: inhibition at 100 µM (%)
Answers are plain numbers, in %.

Guide cases for inhibition at 100 µM, answers given:
CC(C)(c1ccccc1)c1c(O)c2ccccc2oc1=O [Example 39, 3-(α,α-dimethylbenzyl)4-hydroxy coumarin]
82
CCC(CC(=O)Nc1cccc(C(CC)c2c(O)c3ccccc3oc2=O)c1)c1ccccc1 (stereo not drawn)
60.3
O=c1oc2c(c(O)c1C(c1ccccc1)C1CC1)CCCC2 (stereo not drawn)
129
COc1ccc2c(c1)C(c1c(O)c3ccccc3oc1=O)CCC2 (stereo not drawn)
92.5
O=c1oc2ccccc2c(O)c1C1(c2ccccc2)CC1
71.8

For each entry beneath this line, provide reported inhibition at 100 µM.
1. C=CCCC1CCCCc2c1oc(=O)c(C(c1ccccc1)C1CC1)c2O (stereo not drawn)
2. O=c1oc2ccccc2c(O)c1C1CCOc2ccccc21 (stereo not drawn)
3. CCC(c1ccccc1)c1c(O)c2cc(O)ccc2oc1=O (stereo not drawn)
4. O=c1oc2ccccc2c(O)c1CCc1ccccc1 [Example 1, 4-Hydroxy-3-phenethylcoumarin]
5. CCC(c1ccccc1)c1c(O)c2ccc(OCCN3CCOCC3)cc2oc1=O (stereo not drawn)
6. CCC(c1cccc(NC(=O)CNC(=O)OC(C)(C)C)c1)c1c(O)c2ccccc2oc1=O (stereo not drawn)
7. CCC(=O)c1ccc(C(CC)c2c(O)c3ccccc3oc2=O)cc1 (stereo not drawn)
8. O=c1oc2c(c(O)c1C(c1ccccc1)C1CC1)CCCCCCCC2 (stereo not drawn)

Reply |
1. 63.6
2. 93.4
3. 79.6
4. 66.9
5. 103
6. 122
7. 71
8. 102
